Overview of reported pIC50 across a group of molecules:
Tested on: recombinant human TDP2 (Homo sapiens)
Sequence (O95551 whole entry): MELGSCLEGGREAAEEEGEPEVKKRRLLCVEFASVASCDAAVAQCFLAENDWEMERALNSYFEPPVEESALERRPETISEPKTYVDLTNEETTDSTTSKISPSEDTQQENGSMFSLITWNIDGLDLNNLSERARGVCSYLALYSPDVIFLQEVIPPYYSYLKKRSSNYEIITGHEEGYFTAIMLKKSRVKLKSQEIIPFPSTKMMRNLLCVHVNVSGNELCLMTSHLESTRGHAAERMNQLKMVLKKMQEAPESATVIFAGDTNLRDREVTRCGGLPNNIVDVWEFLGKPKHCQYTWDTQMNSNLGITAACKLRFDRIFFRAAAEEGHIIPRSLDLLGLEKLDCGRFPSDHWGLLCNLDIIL
Measurement notes: Recombinant Tdp2 assay (gel-based, 18-mer ssDNA substrate)
Experimental context: recombinant human TDP2, 25 pM, 15 min, room temperature; read-out: REC TDP2
Protocol: TDP2 reactions were carried out as described previously (Example 52) with the following modifications. […] All compounds were prepared by the methods shown in Examples 1 to 50. Routine changes in starting materials and reaction conditions, readily apparent to those of skill in the art, were used to make the particular compounds disclosed in Table 1. […]
pIC50: −log10 of the molar value.

{"Test smiles": "Cc1oc2c(c1C(=O)OC[C@@H](O)CO)C(=O)c1ncccc1C2=O", "pIC50": "4.92 to 6.00"}
{"Test smiles": "Cc1oc2c(c1C(=O)OCCCO)C(=O)c1ncccc1C2=O", "pIC50": "4.43 to 4.92"}
{"Test smiles": "CCOC(=O)c1c(C)oc2c1C(=O)c1ccccc1C2=O", "pIC50": "3.95 to 4.43"}

Request: Please look at `CCOC(=O)c1c(CBr)oc2c1C(=O)c1ncccc1C2=O` and tell me its recorded pIC50 on recombinant human TDP2 (Homo sapiens).
Response: 4.43 to 4.92
